molecular target: Oxysterols receptor LXR-alpha (Homo sapiens); experiment: Agonist activity at LXRalpha ligand binding domain by FRET based SRC1 recruitment assay
test_readout: EC50 (µM)

Example entries begin here.
INSERT INTO measurements (compound, readout_value) VALUES
  ('O=C(O)Cc1cccc(OCCCN(Cc2cccc(C(F)(F)F)c2Cl)CC(c2ccccc2)c2ccccc2)c1', 0.28),
  ('CN(c1ccc(NC(=O)C(C)(O)C(F)(F)F)c(Cl)c1)S(=O)(=O)c1ccc(C#N)cc1 (centres undefined)', 3.4),
  ('COC(=O)CCc1ccc(S(=O)(=O)N(C)c2ccc(NC(=O)C(C)(O)C(F)(F)F)c(Cl)c2)cc1 (centres undefined)', 3.5),
  ('Cc1ccc(S(=O)(=O)N(C)c2ccc(NC(=O)[C@](C)(O)C(F)(F)F)c(Cl)c2)cc1', 1.97),
  ('CN(c1ccc(NC(=O)[C@](C)(O)C(F)(F)F)c(Cl)c1)S(=O)(=O)c1ccccc1', 3.3);

[P] CC(O)(C(=O)Nc1ccc(N(CC2CC2)S(=O)(=O)c2ccccc2Cl)cc1Cl)C(F)(F)F (centres undefined)
[Q] COC(=O)c1ccc(S(=O)(=O)N(C)c2ccc(NC(=O)C(C)(O)C(F)(F)F)c(Cl)c2)cc1 (centres undefined)
IN: Select the item whose EC50 value is smaller, choosing between P and Q . Mark your answer with the label of the selected entry.
OUT: P

###

molecular target: Oxysterols receptor LXR-beta (Homo sapiens, UniProt P55055); assay: Agonist activity at human LXRbeta expressed in human SH-SY5Y cells co-transfected with Gal4-LBD after 24 hrs by luciferase reporter gene assay; assay type: functional, cell-based
Sequence (P55055 whole entry, the tested form may be a part): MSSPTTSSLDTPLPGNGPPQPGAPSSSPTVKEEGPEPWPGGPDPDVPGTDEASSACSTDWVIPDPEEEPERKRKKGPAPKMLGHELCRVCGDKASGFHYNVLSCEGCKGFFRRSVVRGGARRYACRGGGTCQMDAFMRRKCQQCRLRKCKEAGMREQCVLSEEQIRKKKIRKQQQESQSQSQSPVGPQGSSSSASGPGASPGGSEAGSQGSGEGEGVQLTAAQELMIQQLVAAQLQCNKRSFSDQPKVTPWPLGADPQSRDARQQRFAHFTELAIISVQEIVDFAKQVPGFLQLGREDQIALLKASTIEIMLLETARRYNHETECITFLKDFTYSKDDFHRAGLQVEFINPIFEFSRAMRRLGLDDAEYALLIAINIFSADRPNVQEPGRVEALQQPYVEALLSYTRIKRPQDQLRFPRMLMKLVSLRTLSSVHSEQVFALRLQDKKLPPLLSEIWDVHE
test_readout: EC50 (nM)

# count of solved cases: 2
INSERT INTO assay_data (compound, readout_value) VALUES
  ('COC(=O)c1ccc(S(=O)(=O)N(C)c2ccc(NC(=O)C(C)(O)C(F)(F)F)c(Cl)c2)cc1 (stereo not drawn)', 3810),
  ('C[C@H](CC[C@@H]1OC1(C)C)[C@H]1CC[C@H]2[C@@H]3CC=C4C[C@@H](O)CC[C@]4(C)[C@H]3CC[C@]12C [24(S),25-EPOXYCHOLESTEROL]', 400);

[P] CN(c1ccc(NC(=O)[C@](C)(O)C(F)(F)F)c(Cl)c1)S(=O)(=O)c1ccccc1
[Q] CN(c1ccc(NC(=O)C(C)(O)C(F)(F)F)c(Cl)c1)S(=O)(=O)c1ccc(C#N)cc1 (stereo not drawn)
[R] O=C(O)Cc1cccc(OCCCN(Cc2cccc(C(F)(F)F)c2Cl)CC(c2ccccc2)c2ccccc2)c1
IN: Let's sort these by EC50, smallest first. Go ahead? Field: ranking. Enter the labels in the order requested.
OUT: R, P, Q
(R: 130 nM, P: 959 nM, Q: 2700 nM)

###

target: Oxysterols receptor LXR-beta (Homo sapiens, UniProt P55055); test: Agonist activity at human LXRbeta expressed in human SH-SY5Y cells co-transfected with Gal4-LBD after 24 hrs by luciferase reporter gene assay; type: functional, cell-based
test_readout: EC50 (µM)

INSERT INTO measurements (molecule, readout_value) VALUES
  ('Cc1ccc(S(=O)(=O)N(C)c2ccc(NC(=O)[C@](C)(O)C(F)(F)F)c(Cl)c2)cc1', 1.59);

[I] CN(c1ccc(NC(=O)[C@](C)(O)C(F)(F)F)c(Cl)c1)S(=O)(=O)c1ccccc1Cl
[II] CCN(c1ccc(NC(=O)C(C)(O)C(F)(F)F)c(Cl)c1)S(=O)(=O)c1ccccc1Cl (stereo unspecified)
IN: Which of these two has the smaller recorded EC50: I or II ? Use the label to indicate which entry you chose.
OUT: I
(I: 0.813 µM, II: 7.5 µM)

###

Target: Oxysterols receptor LXR-alpha (Homo sapiens)
Sequence (Q13133 whole entry): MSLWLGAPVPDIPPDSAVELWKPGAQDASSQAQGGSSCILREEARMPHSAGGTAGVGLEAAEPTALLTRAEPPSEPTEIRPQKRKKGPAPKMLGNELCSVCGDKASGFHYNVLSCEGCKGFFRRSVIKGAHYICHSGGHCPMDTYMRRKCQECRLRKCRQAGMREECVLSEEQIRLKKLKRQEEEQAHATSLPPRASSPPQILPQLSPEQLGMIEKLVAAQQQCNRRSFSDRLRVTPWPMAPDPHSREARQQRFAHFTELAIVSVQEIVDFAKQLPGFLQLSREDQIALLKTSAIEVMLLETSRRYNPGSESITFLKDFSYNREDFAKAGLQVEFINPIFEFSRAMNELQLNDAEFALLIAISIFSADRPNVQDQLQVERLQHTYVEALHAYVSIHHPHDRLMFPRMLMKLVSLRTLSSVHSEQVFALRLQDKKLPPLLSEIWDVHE
Test: Agonist activity at LXRalpha ligand binding domain by FRET based SRC1 recruitment assay
test_readout: EC50 (nM)

INSERT INTO assay_data (molecule, target_or_test_system, value_units, readout_value) VALUES
  ('C[C@H](CC[C@@H]1OC1(C)C)[C@H]1CC[C@H]2[C@@H]3CC=C4C[C@@H](O)CC[C@]4(C)[C@H]3CC[C@]12C [24(S),25-EPOXYCHOLESTEROL]', 'Oxysterols receptor LXR-alpha (Homo sapiens)', 'nM', 280);

[I] C=CCN(c1ccc(NC(=O)C(C)(O)C(F)(F)F)c(Cl)c1)S(=O)(=O)c1ccccc1Cl (centres undefined)
[II] CCN(c1ccc(NC(=O)C(C)(O)C(F)(F)F)c(Cl)c1)S(=O)(=O)c1ccccc1Cl (centres undefined)
IN: Please tell me which of the two, I or II , has the higher reported EC50 value. Reply with the label of the item you choose.
OUT: II

###

biological target: Oxysterols receptor LXR-beta (Homo sapiens, UniProt P55055); assay: Agonist activity at human LXRbeta expressed in human SH-SY5Y cells co-transfected with Gal4-LBD after 24 hrs by luciferase reporter gene assay; type: functional, cell-based
test_readout: EC50

Bench note, Oxysterols receptor LXR-beta (Homo sapiens, UniProt P55055): entry CN(c1ccc(NC(=O)C(C)(O)C(F)(F)F)c(Cl)c1)S(=O)(=O)c1ccc(CCC(=O)O)cc1 (stereo not drawn) , its EC50 = > 30 µM

Entry COC(=O)CCc1ccc(S(=O)(=O)N(C)c2ccc(NC(=O)C(C)(O)C(F)(F)F)c(Cl)c2)cc1 (stereo not drawn) ; assay system Oxysterols receptor LXR-beta (Homo sapiens, UniProt P55055); EC50 recorded at > 30 µM

Entry CN(c1ccc(NC(=O)C(C)(O)C(F)(F)F)c(Cl)c1)S(=O)(=O)c1ccc(C(=O)O)cc1 (stereo not drawn) under Oxysterols receptor LXR-beta (Homo sapiens, UniProt P55055) had EC50 of > 30 µM

###

biological target: UniProt:P55055; assay: Agonist activity at human LXRbeta expressed in human SH-SY5Y cells co-transfected with Gal4-LBD after 24 hrs by luciferase reporter gene assay; assay type: functional, cell-based
pEC50: −log10 of the molar value.
test_readout: pEC50

Examples with their reported pEC50 follow.
INSERT INTO results (molecule, target_or_test_system, test_readout, readout_value) VALUES
  ('CC(O)(C(=O)Nc1ccc(N(Cc2ccccc2)S(=O)(=O)c2ccccc2Cl)cc1Cl)C(F)(F)F (stereo not drawn)', 'UniProt:P55055', 'pEC50', '< 4.52'),
  ('CC(O)(C(=O)Nc1ccc(N(CC2CC2)S(=O)(=O)c2ccccc2Cl)cc1Cl)C(F)(F)F (stereo not drawn)', 'UniProt:P55055', 'pEC50', '< 4.52');

Form field pEC50, entry C=CCN(c1ccc(NC(=O)C(C)(O)C(F)(F)F)c(Cl)c1)S(=O)(=O)c1ccccc1Cl (stereo not drawn) : < 4.52

Each recorded value in this set is attributed to ChEMBL document CHEMBL1153343.
